target: PXR (NR1I2) (Homo sapiens, UniProt O75469); experiment: Agonist activity at human PXR expressed in HepG2 cells co-expressing luciferase gene under control of CYP3A4 promoter at 10 uM incubated for 24 hrs by luciferase reporter assay relative to control
Sequence (O75469 whole entry): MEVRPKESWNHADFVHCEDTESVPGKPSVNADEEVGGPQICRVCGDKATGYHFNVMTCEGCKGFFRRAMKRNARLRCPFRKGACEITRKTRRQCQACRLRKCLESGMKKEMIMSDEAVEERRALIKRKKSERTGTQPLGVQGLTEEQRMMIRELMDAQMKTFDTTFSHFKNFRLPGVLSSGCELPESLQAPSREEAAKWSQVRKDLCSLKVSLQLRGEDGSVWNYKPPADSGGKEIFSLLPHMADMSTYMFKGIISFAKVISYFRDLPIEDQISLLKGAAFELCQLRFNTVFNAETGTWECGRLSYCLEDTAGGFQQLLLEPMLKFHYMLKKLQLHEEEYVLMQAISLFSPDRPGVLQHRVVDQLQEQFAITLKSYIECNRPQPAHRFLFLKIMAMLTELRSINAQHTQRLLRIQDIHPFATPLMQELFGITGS
Listed compounds paired with reported activity at 24 h, 10 µM
MEASUREMENT_TYPE: activity at 24 h, 10 µM (%)

STRUCTURE_AS_SMILES	STUDY_TARGET	NUMERIC_RESULT
COc1ccc(Cl)cc1-c1ncc(S(=O)(=O)c2ccc(C(C)(C)C)cc2)[nH]1	PXR (NR1I2) (Homo sapiens, UniProt O75469)	71
COc1cc(C#N)c(Cl)cc1-n1nnc(S(=O)(=O)c2ccc(C(C)(C)C)cc2)c1C	PXR (NR1I2) (Homo sapiens, UniProt O75469)	49
COc1ccc(Cl)cc1-c1nc(C)c(S(=O)(=O)c2ccc(C(C)(C)C)cc2)n1C	PXR (NR1I2) (Homo sapiens, UniProt O75469)	84
COc1ccc(C)cc1-c1ncc(S(=O)(=O)c2ccc(C(C)(C)C)cc2)[nH]1	PXR (NR1I2) (Homo sapiens, UniProt O75469)	102
COc1ccc(OC)c(-n2nnc(S(=O)(=O)Cc3ccccc3)c2C)c1	PXR (NR1I2) (Homo sapiens, UniProt O75469)	130
